molecules and their reported GI50
Tested on: A2780
Assay: Growth inhibition of human A2780 cells after 48 hrs by sulforhodamine B assay
Type: functional
Conditions: A2780, 48 h
Numeric only. Scale: nM

COc1cc([C@@H]2c3cc4c(cc3[C@@H](OC(=O)N3CCOCC3)[C@H]3COC(=O)[C@H]23)OCO4)cc(OC)c1OC	130
COc1cc([C@@H]2c3cc4c(cc3[C@@H](OC(=O)NCCc3c[nH]c5ccccc35)[C@H]3COC(=O)[C@H]23)OCO4)cc(OC)c1OC	110

Next molecule, GI50 to be filled in.
**Query** State the recorded GI50 for this entry: COc1cc([C@@H]2c3cc4c(cc3[C@@H](OC(=O)NCC3CC3)[C@H]3COC(=O)[C@H]23)OCO4)cc(OC)c1OC
**Result** 2000

====

Test system: A549
Assay: Growth inhibition of human A549 cells after 48 hrs by sulforhodamine B assay
Assay type: functional
Conditions: A549, 48 h
Property: GI50

COCCNC(=O)O[C@@H]1c2cc3c(cc2[C@@H](c2cc(OC)c(OC)c(OC)c2)[C@H]2C(=O)OC[C@@H]21)OCO3	< 100 nM

Next molecule, GI50 to be filled in.
**Query** State the recorded GI50 for this entry: COc1cc([C@@H]2c3cc4c(cc3[C@@H](OC(=O)NCC3CC3)[C@H]3COC(=O)[C@H]23)OCO4)cc(OC)c1OC
**Result** < 100 nM

====

Assay: Growth inhibition of human Gurav cells after 48 hrs by sulforhodamine B assay
Format: functional
molecules and their reported GI50
Numeric only. Scale: nM

Examples with answers:
COc1cc([C@@H]2c3cc4c(cc3[C@@H](OC(=O)N(C)C)[C@H]3COC(=O)[C@H]23)OCO4)cc(OC)c1OC	170
CCCNC(=O)O[C@@H]1c2cc3c(cc2[C@@H](c2cc(OC)c(OC)c(OC)c2)[C@H]2C(=O)OC[C@@H]21)OCO3	170
COCCNC(=O)O[C@@H]1c2cc3c(cc2[C@@H](c2cc(OC)c(OC)c(OC)c2)[C@H]2C(=O)OC[C@@H]21)OCO3	140

**Query** State the recorded GI50 for this entry: C#CCNC(=O)O[C@@H]1c2cc3c(cc2[C@@H](c2cc(OC)c(OC)c(OC)c2)[C@H]2C(=O)OC[C@@H]21)OCO3
**Result** 140

**Query** State the recorded GI50 for this entry: COc1cc([C@@H]2c3cc4c(cc3[C@@H](OC(=O)NCCc3c[nH]c5ccccc35)[C@H]3COC(=O)[C@H]23)OCO4)cc(OC)c1OC
**Result** 120

**Query** State the recorded GI50 for this entry: O=c1[nH]cc(F)c(=O)[nH]1 [FLUOROURACIL]
**Result** 3100

**Query** State the recorded GI50 for this entry: COc1cc([C@@H]2c3cc4c(cc3[C@@H](OC(=O)NC(C)C)[C@H]3COC(=O)[C@H]23)OCO4)cc(OC)c1OC
**Result** 160

**Query** State the recorded GI50 for this entry: COc1cc([C@@H]2c3cc4c(cc3[C@@H](OC(=O)N3CCOCC3)[C@H]3COC(=O)[C@H]23)OCO4)cc(OC)c1OC
**Result** 140

====

molecules and their reported GI50
Tested on: HOP-62
Test: Growth inhibition of human HOP62 cells after 48 hrs by sulforhodamine B assay
Type: functional
Settings: HOP-62, 48 h
Numeric only. Scale: nM

**Query** State the recorded GI50 for this entry: CCCNC(=O)O[C@@H]1c2cc3c(cc2[C@@H](c2cc(OC)c(OC)c(OC)c2)[C@H]2C(=O)OC[C@@H]21)OCO3
**Result** 160

Source: ChEMBL document CHEMBL1773058
